From: patent US20260055398A1

Catalogue of compounds with associated Km
Tested on: N20O1
Assay: Kinetics of p-NP acyl ester hydrolysis by N20O1
Type: biochemical
Conditions: 50 mM Tris-HCl pH 8.0, 0.3% (v/v) triton X-100, 22° C.
Description: The activity of all esterase hits was determined via hydrolysis of p-nitrophenol (p-NP) carboxylesterase by monitoring the release of p-nitrophenol. The amount of p-nitrophenol released was quantified by absorbance at 405 nm (εpNP=17,000 M−1.cm−1) using a Spectramax 190 microplate reader (Molecular Devices). […]

- COMPOUND: "CC(=O)Oc1ccc([N+](=O)[O-])cc1 [Substrate 3a, p-NP acetate]"
  SYSTEM_NAME: "N20O1"
  READOUT_UNITS: "µM"
  Km: 3800
- COMPOUND: "CCCCCCCCCCCCCC(=O)Oc1ccc([N+](=O)[O-])cc1 [Substrate 3g, p-NP myristate]"
  SYSTEM_NAME: "N20O1"
  READOUT_UNITS: "µM"
  Km: 4400
- COMPOUND: "CCCCCCCCCCCC(=O)Oc1ccc([N+](=O)[O-])cc1 [Substrate 3f, p-NP dodecanoate]"
  SYSTEM_NAME: "N20O1"
  READOUT_UNITS: "µM"
  Km: 2000
- COMPOUND: "CCCCCCCCCC(=O)Oc1ccc([N+](=O)[O-])cc1 [Substrate 3e, p-NP decanoate]"
  SYSTEM_NAME: "N20O1"
  READOUT_UNITS: "µM"
  Km: 1500
